Task for the reader: assign each of the following molecules its reported Percent urinary excretion of oral sugar probe corrected for CrCl.
test-description: Urinary excretion of oral sugar probes
Assay type: in vivo, human
conditions: 0-5 hour; percent excretion divided by creatinine clearance; mean ± SE

As a guide, the following entries are already answered.
molecule	recorded-value
OC[C@@H](O)[C@@H](O)[C@H](O)[C@H](O)CO [Mannitol, D-mannitol]	0.18 ± 0.01
OC[C@H]1O[C@@H](O[C@@H]2[C@@H](CO)O[C@](O)(CO)[C@H]2O)[C@H](O)[C@@H](O)[C@H]1O [Lactulose]	0.012 ± 0.001
OC[C@H]1O[C@@](CO)(O[C@H]2O[C@H](CO)[C@@H](O)[C@H](O)[C@H]2O)[C@@H](O)[C@@H]1O [Sucrose, α-D-glucopyranosyl-β-D-fructofuranoside]	0.006 ± 0.0007

Q) Quick check: Percent urinary excretion of oral sugar probe corrected for CrCl of OC[C@H]1O[C@H](O[C@]2(CCl)O[C@H](CCl)[C@@H](O)[C@@H]2O)[C@H](O)[C@@H](O)[C@H]1Cl [Sucralose] ?
A) 0.005 ± 0.001
